Provenance of the data: patent US9023616B2

- Test system: ONC-T18
- PROCEDURE_DETAILS: Fatty acid production antagonist supplementation of ONC-T18 culture, fatty acid profile by FAME GC-FID
- Type: cell-based, Thraustochytrium sp. ONC-T18
- PARTICULARS: presence of the antagonist; oleic acid without glucose
Provide the recorded docosapentaenoic acid n-6, lipid as percentage of total fatty acid for the entries that follow.
# output: bare number, implied unit %

# input Using the record for COc1cc(CNC(=O)CCCC/C=C/C(C)C)ccc1O , report its docosapentaenoic acid n-6, lipid as percentage of total fatty acid.
# output 5.19

# input Using the record for Cc1ccccc1C(=O)O , report its docosapentaenoic acid n-6, lipid as percentage of total fatty acid.
# output 5.95

# input Using the record for CCC/C(=N\OCC)C1=C(O)CC(CC(C)SCC)CC1=O (stereo not drawn) , report its docosapentaenoic acid n-6, lipid as percentage of total fatty acid.
# output 5.26

# input Using the record for C/C=C/C/C=C/CCC(=O)[C@H]1O[C@H]1C(N)=O , report its docosapentaenoic acid n-6, lipid as percentage of total fatty acid.
# output 5.83

# input Using the record for CCCCCCCC/C=C\CCCCCCCC(=O)O , report its docosapentaenoic acid n-6, lipid as percentage of total fatty acid.
# output 7.58

# input Using the record for CNc1cnn(-c2cccc(C(F)(F)F)c2)c(=O)c1Cl , report its docosapentaenoic acid n-6, lipid as percentage of total fatty acid.
# output 5.23
